The measurements presented in this section are drawn from patent US10428140B2.

Molecular target: T1, human EphB2 (Homo sapiens, UniProt P29323)
T1 construct: a protein of the extracellular region of each human Eph receptor fused with the SEAP protein and the His tag; made in house; host or cells: Expi293F cells
T1 sequence (P29323 19-543 limits assumed): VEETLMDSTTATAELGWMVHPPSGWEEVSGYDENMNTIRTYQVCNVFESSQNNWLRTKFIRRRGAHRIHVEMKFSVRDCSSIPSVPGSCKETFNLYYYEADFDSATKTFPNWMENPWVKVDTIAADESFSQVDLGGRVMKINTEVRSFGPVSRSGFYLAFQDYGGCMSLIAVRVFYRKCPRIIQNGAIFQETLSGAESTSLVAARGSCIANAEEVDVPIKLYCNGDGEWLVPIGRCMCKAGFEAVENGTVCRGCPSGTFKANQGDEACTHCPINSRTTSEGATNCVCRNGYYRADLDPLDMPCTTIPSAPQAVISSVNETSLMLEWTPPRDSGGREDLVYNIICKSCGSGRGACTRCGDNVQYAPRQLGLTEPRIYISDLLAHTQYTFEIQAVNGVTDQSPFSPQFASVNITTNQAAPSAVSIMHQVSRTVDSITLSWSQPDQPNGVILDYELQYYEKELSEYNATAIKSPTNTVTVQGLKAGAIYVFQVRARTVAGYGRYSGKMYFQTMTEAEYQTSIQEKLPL
Test: Selectivity ELISA of humanized antibodies for human Eph receptor
Format: binding
Settings: coated protein 1 nM
Would you mind telling me the reported hEphB2-SEAP-: absorbance at 450 nm, percentage with respect to hEphA4-SEAP-His as 100% of each entry?
API: value field is a number in %; no unit string.

Lookup result for 83 (antibody, V domains shown, constant regions without entry; synthetic humanized antibody light chain variable region sequence; synthetic humanized antibody heavy chain variable region sequence) VL: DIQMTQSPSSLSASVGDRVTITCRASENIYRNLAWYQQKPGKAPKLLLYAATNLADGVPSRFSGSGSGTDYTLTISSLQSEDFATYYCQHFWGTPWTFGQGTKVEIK VH: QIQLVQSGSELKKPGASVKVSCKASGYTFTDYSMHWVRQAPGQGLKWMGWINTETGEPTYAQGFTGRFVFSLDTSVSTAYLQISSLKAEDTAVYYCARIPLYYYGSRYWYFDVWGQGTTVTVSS ; measured hEphB2-SEAP-: absorbance at 450 nm, percentage with respect to hEphA4-SEAP-His as 100%: 5.6

Lookup result for 152 (antibody, V domains shown, synthetic humanized antibody heavy chain variable region sequence; synthetic humanized antibody light chain variable region sequence) VH: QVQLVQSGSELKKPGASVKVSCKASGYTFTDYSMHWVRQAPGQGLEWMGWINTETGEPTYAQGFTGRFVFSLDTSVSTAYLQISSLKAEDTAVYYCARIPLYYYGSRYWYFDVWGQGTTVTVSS VL: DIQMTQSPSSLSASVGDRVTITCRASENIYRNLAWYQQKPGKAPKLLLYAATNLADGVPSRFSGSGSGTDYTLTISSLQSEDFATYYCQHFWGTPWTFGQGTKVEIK ; measured hEphB2-SEAP-: absorbance at 450 nm, percentage with respect to hEphA4-SEAP-His as 100%: 5.8

Lookup result for 92 (antibody, V domains shown, constant regions without entry; synthetic humanized antibody light chain variable region sequence; synthetic humanized antibody heavy chain variable region sequence) VL: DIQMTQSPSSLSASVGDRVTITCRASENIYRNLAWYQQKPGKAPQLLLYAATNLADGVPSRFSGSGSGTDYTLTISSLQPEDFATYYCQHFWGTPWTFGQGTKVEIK VH: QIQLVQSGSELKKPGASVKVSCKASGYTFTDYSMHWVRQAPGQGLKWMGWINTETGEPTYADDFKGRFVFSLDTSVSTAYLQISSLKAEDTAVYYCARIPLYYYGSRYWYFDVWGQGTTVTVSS ; measured hEphB2-SEAP-: absorbance at 450 nm, percentage with respect to hEphA4-SEAP-His as 100%: 6.6

Lookup result for 143 (antibody, V domains shown, synthetic humanized antibody heavy chain variable region sequence; synthetic humanized antibody light chain variable region sequence) VH: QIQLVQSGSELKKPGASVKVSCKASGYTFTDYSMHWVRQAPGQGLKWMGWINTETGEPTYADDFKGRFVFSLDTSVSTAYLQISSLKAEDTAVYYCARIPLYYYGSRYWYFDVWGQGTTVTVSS VL: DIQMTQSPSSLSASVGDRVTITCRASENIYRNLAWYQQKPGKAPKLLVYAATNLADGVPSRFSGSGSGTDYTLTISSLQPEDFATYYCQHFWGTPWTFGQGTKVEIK ; measured hEphB2-SEAP-: absorbance at 450 nm, percentage with respect to hEphA4-SEAP-His as 100%: 5.8

Lookup result for 86 (antibody, V domains shown, constant regions without entry; synthetic humanized antibody light chain variable region sequence; synthetic humanized antibody heavy chain variable region sequence) VL: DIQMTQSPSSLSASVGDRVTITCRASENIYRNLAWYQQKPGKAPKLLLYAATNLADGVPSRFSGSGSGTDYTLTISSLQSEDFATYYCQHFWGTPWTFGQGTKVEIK VH: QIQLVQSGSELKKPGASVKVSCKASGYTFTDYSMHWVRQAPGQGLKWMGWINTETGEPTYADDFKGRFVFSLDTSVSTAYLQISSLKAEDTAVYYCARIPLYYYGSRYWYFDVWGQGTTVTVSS ; measured hEphB2-SEAP-: absorbance at 450 nm, percentage with respect to hEphA4-SEAP-His as 100%: 5.7

Lookup result for 132 (antibody, V domains shown, synthetic humanized antibody heavy chain variable region sequence; synthetic humanized antibody light chain variable region sequence) VH: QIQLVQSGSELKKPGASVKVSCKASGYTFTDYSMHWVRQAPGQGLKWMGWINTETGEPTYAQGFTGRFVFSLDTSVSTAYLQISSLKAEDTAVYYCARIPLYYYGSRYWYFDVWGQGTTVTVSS VL: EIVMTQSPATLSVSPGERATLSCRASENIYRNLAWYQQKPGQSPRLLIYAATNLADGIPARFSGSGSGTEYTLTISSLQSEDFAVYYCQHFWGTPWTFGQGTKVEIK ; measured hEphB2-SEAP-: absorbance at 450 nm, percentage with respect to hEphA4-SEAP-His as 100%: 4.7

Lookup result for 84 (antibody, V domains shown, constant regions without entry; synthetic humanized antibody light chain variable region sequence; synthetic humanized antibody heavy chain variable region sequence) VL: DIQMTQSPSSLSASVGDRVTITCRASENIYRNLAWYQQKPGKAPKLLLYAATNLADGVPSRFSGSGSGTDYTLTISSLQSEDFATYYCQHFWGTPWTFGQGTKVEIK VH: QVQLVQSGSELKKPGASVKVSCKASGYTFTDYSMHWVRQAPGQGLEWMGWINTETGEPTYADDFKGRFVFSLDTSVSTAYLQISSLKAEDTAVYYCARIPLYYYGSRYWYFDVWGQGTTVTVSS ; measured hEphB2-SEAP-: absorbance at 450 nm, percentage with respect to hEphA4-SEAP-His as 100%: 4.9
